Attribute: Emax
- Target Or System: UniProt Q96RJ0
- Sequence (Q96RJ0 whole entry): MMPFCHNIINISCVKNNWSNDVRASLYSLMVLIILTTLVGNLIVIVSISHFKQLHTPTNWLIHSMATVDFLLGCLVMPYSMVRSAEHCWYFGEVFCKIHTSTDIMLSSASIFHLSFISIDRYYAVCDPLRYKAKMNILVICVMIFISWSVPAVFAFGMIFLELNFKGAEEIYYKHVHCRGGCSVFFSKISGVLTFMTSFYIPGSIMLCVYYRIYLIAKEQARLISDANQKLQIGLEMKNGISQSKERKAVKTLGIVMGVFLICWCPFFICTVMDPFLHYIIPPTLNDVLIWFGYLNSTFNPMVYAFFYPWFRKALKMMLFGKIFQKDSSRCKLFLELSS
- Experimental Protocol: in vitro cAMP assay (agonist activity assay), HitHunter cAMP XS+, cAMP Hunter cell lines
- Format: cell-based
- Experimental Setup: maximal cAMP level, cAMP Hunter cells, n in brackets; read-out: hTAAR1 Emax (mean ± SEM(n))
Assay Endpoint: Emax (%)

- CCN(C[C@H]1COC(NC2=N[C@@H](c3ccc(Cl)c(Cl)c3)CO2)=N1)c1ccccc1: 34.3
- CCN(C[C@H]1COC(NC2=N[C@@H](CN(CC)c3ccccc3)CO2)=N1)c1ccccc1: 60.7
- c1ccc([C@H]2COC(NC3=N[C@@H](c4ccccc4)CO3)=N2)cc1: 3.6
- Cc1c(F)cccc1[C@H]1COC(NC2=N[C@@H](c3cccc(F)c3C)CO2)=N1: 67.5
